pKi: −log10 of the molar value.
Quick record: pKi, UniProt P30550.
Sequence (P30550 whole entry): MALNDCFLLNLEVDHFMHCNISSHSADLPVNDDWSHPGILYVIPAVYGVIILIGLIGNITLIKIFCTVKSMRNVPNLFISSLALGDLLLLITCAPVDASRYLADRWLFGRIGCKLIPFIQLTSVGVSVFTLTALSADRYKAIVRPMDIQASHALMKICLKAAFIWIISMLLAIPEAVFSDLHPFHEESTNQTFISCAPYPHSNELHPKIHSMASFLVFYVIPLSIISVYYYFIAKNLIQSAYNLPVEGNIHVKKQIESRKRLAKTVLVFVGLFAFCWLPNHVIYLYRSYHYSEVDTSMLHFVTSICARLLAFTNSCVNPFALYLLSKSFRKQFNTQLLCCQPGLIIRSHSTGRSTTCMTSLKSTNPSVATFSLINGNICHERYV

Use these answered entries as a reference point.
[
  {
    "compound": "CC(C)c1cccc(C(C)C)c1NC(=O)NC(C)(Cc1c[nH]c2ccccc12)C(=O)NC1CCCCC1 (stereo not given)",
    "pKi": "< 5.00"
  },
  {
    "compound": "CC(C)c1cccc(C(C)C)c1NC(=O)N[C@](C)(Cc1c[nH]c2ccccc12)C(=O)NC1CCCc2ccccc21 (stereo not given in full)",
    "pKi": "< 5.00"
  },
  {
    "compound": "CC(C)c1cccc(C(C)C)c1N(C)C(=O)NC(Cc1c[nH]c2ccccc12)C(=O)NCC1CCCCC1 (stereo not given)",
    "pKi": "< 5.00"
  }
]

Find pKi (UniProt P30550) for the entry CC(C)c1cccc(C(C)C)c1NC(=O)NC(Cc1c[nH]c2ccccc12)C(=O)NC(C)C1CCCCC1 (stereo not given)
< 5.00

Find pKi (UniProt P30550) for the entry CC(C)c1cccc(C(C)C)c1NC(=O)N(C)C(Cc1c[nH]c2ccccc12)C(=O)NCC1CCCCC1 (stereo not given)
5.82

###

# assayedTarget: UniProt:P28336
# test: Binding affinity against human NMB receptor was determined
endpoint: pKi
Value format note: pKi is -log10 of concentration (mol/L); just state the number.

Fill in: pKi of CC(C)c1cccc(C(C)C)c1NC(=O)N[C@@](C)(Cc1c[nH]c2ccccc12)C(=O)NCC1(c2ccccn2)CCCCC1 is ___
8.20

###

# assayedTarget: Neuromedin-B receptor (Homo sapiens, UniProt P28336)
# Sequence (P28336 whole entry): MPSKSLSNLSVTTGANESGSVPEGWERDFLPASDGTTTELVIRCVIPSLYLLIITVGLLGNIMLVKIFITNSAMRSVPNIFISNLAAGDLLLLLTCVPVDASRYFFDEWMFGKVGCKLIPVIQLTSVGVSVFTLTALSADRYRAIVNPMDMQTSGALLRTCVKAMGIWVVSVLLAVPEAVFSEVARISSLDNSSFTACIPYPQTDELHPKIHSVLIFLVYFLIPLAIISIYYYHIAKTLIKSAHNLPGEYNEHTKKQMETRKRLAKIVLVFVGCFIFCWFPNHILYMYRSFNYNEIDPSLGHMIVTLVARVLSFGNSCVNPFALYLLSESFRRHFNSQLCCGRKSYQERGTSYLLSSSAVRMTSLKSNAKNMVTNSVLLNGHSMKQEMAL
# test: Binding affinity against [125 I][4Tyr]-bombesin labeled cloned human NMB receptor stably expressed in CHO cells
# Format: cell-based
endpoint: Ki (nM)

Use these answered entries as a reference point.
[
  {
    "molecule": "CC(C)c1cccc(C(C)C)c1NC(=O)NC(C)(Cc1c[nH]c2ccccc12)C(=O)NCC1(c2ccccc2)CCCCC1 (stereo unspecified)",
    "measureUnit": "nM",
    "Ki": 7.8
  },
  {
    "molecule": "CC(C)c1cccc(C(C)C)c1NC(=O)NC(Cc1c[nH]c2ccccc12)C(=O)NC(C)C1CCCCC1 (stereo unspecified)",
    "measureUnit": "nM",
    "Ki": 440
  },
  {
    "molecule": "CC(C)c1cccc(C(C)C)c1NC(=O)NC(Cc1c[nH]c2ccccc12)C(=O)NCC1CCCCC1 (stereo unspecified)",
    "measureUnit": "nM",
    "Ki": 120
  },
  {
    "molecule": "CNC(=O)C(C)(Cc1c[nH]c2ccccc12)NC(=O)Nc1c(C(C)C)cccc1C(C)C (stereo unspecified)",
    "measureUnit": "nM",
    "Ki": 3700
  }
]

(P) CC(C)c1cccc(C(C)C)c1NC(=O)N[C@@](C)(Cc1c[nH]c2ccccc12)C(=O)NC1CCCCC1c1ccccc1 (stereo partly specified)
(Q) CC(C)c1cccc(C(C)C)c1NC(=O)NC(C)(Cc1c[nH]c2ccccc12)C(=O)N[C@@H]1COC(C)(C)OC1c1ccccc1 (stereo partly specified)
Short answer wanted: higher Ki, P or Q ? Kindly state the label of the option you pick.
Q
(Q: 420 nM, P: 76 nM)

(a) CC(C)c1cccc(C(C)C)c1NC(=O)NC(C)(Cc1c[nH]c2ccccc12)C(=O)NC1CCCc2ccccc21 (stereo unspecified)
(b) CC(C)c1cccc(C(C)C)c1NC(=O)NC(C)(Cc1c[nH]c2ccccc12)C(=O)NC1COC(C)(C)OC1 (stereo unspecified)
(c) CC(C)c1cccc(C(C)C)c1NC(=O)NC(C)(Cc1c[nH]c2ccccc12)C(=O)NCC1CCCCC1 (stereo unspecified)
(d) CC(C)c1cccc(C(C)C)c1NC(=O)N[C@@](C)(Cc1c[nH]c2ccccc12)C(=O)NCC1(c2ccccn2)CCCCC1
Task for the reader: rank each entry by its Ki, from the minimum upward. Response field: labels, in requested order.
d, a, c, b

(A) CC(C)c1cccc(C(C)C)c1NC(=O)NC(C)(Cc1c[nH]c2ccccc12)C(=O)NCCc1ccccc1 (stereo unspecified)
(B) CC(C)c1cccc(C(C)C)c1NC(=O)NC(C)(Cc1c[nH]c2ccccc12)C(=O)N[C@H]1COC(C)(C)OC1c1ccccc1 (stereo partly specified)
Short answer wanted: higher Ki, A or B ? Kindly state the label of the option you pick.
A

Source listed as ChEMBL document CHEMBL1159192.
